What inhibition was measured for each of the following?
Target: UniProt:O35433
Assay: Partial antagonist activity at rat TRPV1 expressed in CHO cells assessed as inhibition of capsaicin-induced calcium uptake
Assay type: functional, cell-based
Conditions: concentration not given here
Report the figure in % without appending any unit label.

Request: What inhibition value was documented for this molecule, `COc1cc(CC(=O)NCc2ccc(C(C)(C)C)cc2)c(I)cc1OC(C)=O` ?
Result: 85

Request: Same question for CC(C)(C)C(=O)OCC(CNC(=O)Cc1ccc(N)c(Cl)c1)Cc1ccc(C(C)(C)C)cc1 (stereo not given) please.
Result: 24

Request: Same question for `COc1cc(CC(=O)NCc2ccc(C(C)(C)C)cc2)c(Br)cc1OC(C)=O` please.
Result: 59

Request: Same question for COc1cc(CC(=O)NCC(COC(=O)C(C)(C)C)Cc2ccc(C(C)(C)C)cc2)c(Br)cc1OC(C)=O (stereo not given) please.
Result: 63

Request: Same question for COc1cc(CC(=O)NCC(COC(=O)C(C)(C)C)Cc2ccc(C)c(C)c2)cc(I)c1OC(C)=O (stereo not given) please.
Result: 59

###

What Activity was measured for each of the following?
Molecular target: Transient receptor potential cation channel subfamily V member 1 (Rattus norvegicus)
Assay: Agonist activity at rat TRPV1 expressed in CHO cells assessed as increase of capsaicin-induced calcium uptake relative to capsaicin
Assay type: functional, cell-based
Report the figure in % without appending any unit label.

Request: What Activity value was documented for this compound, COc1cc(CC(=O)NCC(COC(=O)C(C)(C)C)Cc2ccc(C(C)(C)C)cc2)ccc1NS(C)(=O)=O (centres undefined) ?
Result: 72

Request: Same question for COc1cc(CC(=O)NCC(COC(=O)C(C)(C)C)Cc2ccc(C(C)(C)C)cc2)cc(Cl)c1OC(C)=O (centres undefined) please.
Result: 28

Request: Same question for COc1cc(CC(=O)NCC(COC(=O)C(C)(C)C)Cc2ccc(C(C)(C)C)cc2)c(Br)cc1OC(C)=O (centres undefined) please.
Result: 22

Request: Same question for `COc1cc(CC(=O)NCc2ccc(C(C)(C)C)cc2)cc(Cl)c1OC(C)=O` please.
Result: 22

###

Target: Transient receptor potential cation channel subfamily V member 1 (Rattus norvegicus)
Test: Antagonist activity at rat TRPV1 expressed in CHO cells assessed as inhibition of capsaicin-induced calcium uptake
Format: functional, cell-based
Settings: read-out: Ki
pKi: −log10 of the molar value.
Threshold rule: pKi greater than or equal to 8 is Met; below that, Not met.

Request: Please indicate if the recorded pKi for `COc1cc(CC(=O)NCc2ccc(C(C)(C)C)cc2)cc(I)c1OC(C)=O` meets or exceeds 8.
Result: Not met

Request: Same question for CC(C)(C)C(=O)OCC(CNC(=O)Cc1cc(Br)c(N)c(Br)c1)Cc1ccc(C(C)(C)C)cc1 (centres undefined) please.
Result: Met

Request: Same question for `COc1cc(CC(=O)NCc2ccc(C(C)(C)C)cc2)cc(I)c1O` please.
Result: Not met

Request: Same question for COc1cc(CC(=O)NCC(COC(=O)C(C)(C)C)Cc2ccc(C(C)(C)C)cc2)cc(Br)c1N (centres undefined) please.
Result: Met

Request: Same question for `COc1cc(CC(=O)NCc2ccc(C(C)(C)C)cc2)cc(Cl)c1OC(C)=O` please.
Result: Not met

Request: Same question for CC(C)(C)C(=O)OCC(CNC(=O)Cc1cc(Br)cc(Br)c1)Cc1ccc(C(C)(C)C)cc1 (centres undefined) please.
Result: Not met

Request: Same question for COc1cc(CC(=O)NCC(COC(=O)C(C)(C)C)Cc2ccc(C(C)(C)C)cc2)cc(Br)c1OC(C)=O (centres undefined) please.
Result: Not met

Request: Same question for CC(C)(C)C(=O)OCC(CNC(=O)Cc1cc(Cl)c(N)c(Cl)c1)Cc1ccc(C(C)(C)C)cc1 (centres undefined) please.
Result: Met

###

Target: Transient receptor potential cation channel subfamily V member 1 (Rattus norvegicus, UniProt O35433)
Sequence (O35433 whole entry): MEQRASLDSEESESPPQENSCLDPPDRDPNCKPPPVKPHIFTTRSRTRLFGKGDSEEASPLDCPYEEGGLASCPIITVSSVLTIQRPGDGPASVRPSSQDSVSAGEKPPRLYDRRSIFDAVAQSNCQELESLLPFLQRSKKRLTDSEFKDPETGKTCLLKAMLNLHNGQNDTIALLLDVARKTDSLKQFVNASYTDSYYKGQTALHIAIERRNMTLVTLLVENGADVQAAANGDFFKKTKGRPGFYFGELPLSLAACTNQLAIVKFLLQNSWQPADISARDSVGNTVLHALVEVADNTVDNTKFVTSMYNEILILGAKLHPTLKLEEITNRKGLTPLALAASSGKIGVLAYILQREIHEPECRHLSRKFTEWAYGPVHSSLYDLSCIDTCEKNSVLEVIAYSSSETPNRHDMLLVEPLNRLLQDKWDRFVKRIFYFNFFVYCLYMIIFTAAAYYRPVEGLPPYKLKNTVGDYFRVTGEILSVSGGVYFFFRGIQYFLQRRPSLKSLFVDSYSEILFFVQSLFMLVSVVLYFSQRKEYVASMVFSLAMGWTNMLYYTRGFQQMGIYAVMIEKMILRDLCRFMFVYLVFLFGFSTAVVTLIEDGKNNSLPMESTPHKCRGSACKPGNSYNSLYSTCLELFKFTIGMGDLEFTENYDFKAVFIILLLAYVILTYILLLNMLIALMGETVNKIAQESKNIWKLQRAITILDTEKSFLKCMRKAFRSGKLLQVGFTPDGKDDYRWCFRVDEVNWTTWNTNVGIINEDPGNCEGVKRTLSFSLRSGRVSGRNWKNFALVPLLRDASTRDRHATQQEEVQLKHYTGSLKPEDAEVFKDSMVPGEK
Assay: Antagonist activity at rat TRPV1 expressed in CHO cells assessed as inhibition of capsaicin-induced calcium uptake
Assay type: functional, cell-based
Settings: read-out: Ki
So basically: is Ki under 10 nM? Then condition met. Not under? Then condition not met.

Request: Could you please tell me whether Ki recorded for CC(C)(C)C(=O)OCC(CNC(=O)Cc1cc(Br)c(O)c(Br)c1)Cc1ccc(C(C)(C)C)cc1 (centres undefined) is less than 10 nM?
Result: condition not met

Request: Same question for COc1cc(CC(=O)NCC(COC(=O)C(C)(C)C)Cc2ccc(C(C)(C)C)cc2)cc(Cl)c1N (centres undefined) please.
Result: condition met

Request: Same question for COc1cc(CC(=O)NCC(COC(=O)C(C)(C)C)Cc2ccc(C(C)(C)C)cc2)cc(I)c1OC(C)=O (centres undefined) please.
Result: condition not met

Request: Same question for `COc1cc(CC(=O)NCc2ccc(C(C)(C)C)cc2)cc(Br)c1O` please.
Result: condition not met

Request: Same question for COc1cc(CC(=O)NCC(COC(=O)C(C)(C)C)Cc2ccc(C(C)(C)C)cc2)cc(Br)c1O (centres undefined) please.
Result: condition met

Request: Same question for COc1cc(CC(=O)NCC(COC(=O)C(C)(C)C)Cc2ccc(C)c(C)c2)cc(I)c1O (centres undefined) please.
Result: condition not met

Request: Same question for CC(C)(C)C(=O)OCC(CNC(=O)Cc1cc(Cl)c(O)c(Cl)c1)Cc1ccc(C(C)(C)C)cc1 (centres undefined) please.
Result: condition met

Request: Same question for COc1cc(CC(=O)NCC(COC(=O)C(C)(C)C)Cc2ccc(C(C)(C)C)cc2)cc(I)c1O (centres undefined) please.
Result: condition met

Request: Same question for COc1cc(CC(=O)NCC(COC(=O)C(C)(C)C)Cc2ccc(C(C)(C)C)cc2)c(I)cc1OC(C)=O (centres undefined) please.
Result: condition not met

###

Target: Transient receptor potential cation channel subfamily V member 1 (Rattus norvegicus, UniProt O35433)
Test: Agonist activity at rat TRPV1 expressed in CHO cells assessed as increase of capsaicin-induced calcium uptake
Type: functional, cell-based
Conditions: read-out: EC50
What EC50 was measured for each of the following?
Report the figure in nM without appending any unit label.

Request: What EC50 value was documented for this molecule, COc1cc(CC(=O)NCC(COC(=O)C(C)(C)C)Cc2ccc(C(C)(C)C)cc2)ccc1O (centres undefined) ?
Result: 4.08

Request: Same question for `COc1cc(CC(=O)NCc2ccc(C(C)(C)C)cc2)c(Cl)cc1O` please.
Result: 135

Request: Same question for COc1cc(CC(=O)NCC(COC(=O)C(C)(C)C)Cc2ccc(C(C)(C)C)cc2)ccc1N (centres undefined) please.
Result: 22.9

Request: Same question for `COc1cc(CC(=O)NCc2ccc(C(C)(C)C)cc2)ccc1O` please.
Result: 82

###

Target: Transient receptor potential cation channel subfamily V member 1 (Rattus norvegicus, UniProt O35433)
Assay: Displacement of [3H]RTX from rat TRPV1 expressed in CHO cells
Type: cell-based
So basically: is Ki under 200 nM? Then t. Not under? Then f.

Request: Could you please tell me whether Ki recorded for `COc1cc(CC(=O)NCc2ccc(C(C)(C)C)cc2)cc(I)c1OC(C)=O` is less than 200 nM?
Result: t

Request: Same question for `COc1cc(CC(=O)NCc2ccc(C(C)(C)C)cc2)ccc1O` please.
Result: f

Request: Same question for `COc1cc(CC(=O)NCc2ccc(C(C)(C)C)cc2)cc(Cl)c1O` please.
Result: t

Request: Same question for `COc1cc(CC(=O)NCc2ccc(C(C)(C)C)cc2)c(Br)cc1O` please.
Result: f

Request: Same question for CC(C)(C)C(=O)OCC(CNC(=O)Cc1cc(Br)cc(Br)c1)Cc1ccc(C(C)(C)C)cc1 (configuration not stated) please.
Result: f

Request: Same question for `COc1cc(CC(=O)NCc2ccc(C(C)(C)C)cc2)c(Br)cc1OC(C)=O` please.
Result: f

Request: Same question for COc1cc(CC(=O)NCC(COC(=O)C(C)(C)C)Cc2ccc(C(C)(C)C)cc2)cc(Cl)c1OC(C)=O (configuration not stated) please.
Result: t

Request: Same question for COc1cc(CC(=O)NCC(COC(=O)C(C)(C)C)Cc2ccc(C(C)(C)C)cc2)c(I)cc1OC(C)=O (configuration not stated) please.
Result: t

Request: Same question for CC(C)(C)C(=O)OCC(CNC(=O)Cc1ccc(N)c(Br)c1)Cc1ccc(C(C)(C)C)cc1 (configuration not stated) please.
Result: t

Request: Same question for `COc1cc(CC(=O)NCc2ccc(C(C)(C)C)cc2)cc(Br)c1O` please.
Result: t

Request: Same question for COc1cc(CC(=O)NCC(COC(=O)C(C)(C)C)Cc2ccc(C(C)(C)C)cc2)cc(I)c1O (configuration not stated) please.
Result: t

Request: Same question for CC(C)(C)C(=O)OCC(CNC(=O)Cc1ccc(O)c(Br)c1)Cc1ccc(C(C)(C)C)cc1 (configuration not stated) please.
Result: t

Request: Same question for `COc1cc(CC(=O)NCc2ccc(C(C)(C)C)cc2)c(Cl)cc1OC(C)=O` please.
Result: f

Request: Same question for COc1cc(CC(=O)NCC(COC(=O)C(C)(C)C)Cc2ccc(C)c(C)c2)cc(Br)c1O (configuration not stated) please.
Result: t

Request: Same question for COc1cc(CC(=O)NCC(COC(=O)C(C)(C)C)Cc2ccc(C(C)(C)C)cc2)cc(I)c1OC(C)=O (configuration not stated) please.
Result: t

Request: Same question for COc1cc(CC(=O)NCC(COC(=O)C(C)(C)C)Cc2ccc(C)c(C)c2)c(I)cc1O (configuration not stated) please.
Result: t

Request: Same question for `COc1cc(CC(=O)NCc2ccc(C(C)(C)C)cc2)c(I)cc1O` please.
Result: f

Request: Same question for COc1cc(CC(=O)NCC(COC(=O)C(C)(C)C)Cc2ccc(C(C)(C)C)cc2)c(Cl)cc1OC(C)=O (configuration not stated) please.
Result: t

Request: Same question for COc1cc(CC(=O)NCC(COC(=O)C(C)(C)C)Cc2ccc(C)c(C)c2)cc(I)c1O (configuration not stated) please.
Result: f

Request: Same question for COc1cc(CC(=O)NCC(COC(=O)C(C)(C)C)Cc2ccc(C(C)(C)C)cc2)c(Cl)cc1O (configuration not stated) please.
Result: t

Request: Same question for COc1cc(CC(=O)NCC(COC(=O)C(C)(C)C)Cc2ccc(C(C)(C)C)cc2)ccc1O (configuration not stated) please.
Result: t

Request: Same question for COc1cc(CC(=O)NCC(COC(=O)C(C)(C)C)Cc2ccc(C(C)(C)C)cc2)cc(Br)c1OC(C)=O (configuration not stated) please.
Result: t

Request: Same question for COc1cc(CC(=O)NCC(COC(=O)C(C)(C)C)Cc2ccc(C)c(C)c2)cc(I)c1OC(C)=O (configuration not stated) please.
Result: f

Request: Same question for COc1cc(CC(=O)NCC(COC(=O)C(C)(C)C)Cc2ccc(C(C)(C)C)cc2)cc(Cl)c1O (configuration not stated) please.
Result: t

Request: Same question for COc1cc(CC(=O)NCC(COC(=O)C(C)(C)C)Cc2ccc(C(C)(C)C)cc2)ccc1NS(C)(=O)=O (configuration not stated) please.
Result: t

Request: Same question for CC(C)(C)C(=O)OCC(CNC(=O)Cc1cc(Br)c(O)c(Br)c1)Cc1ccc(C(C)(C)C)cc1 (configuration not stated) please.
Result: t

Request: Same question for COc1cc(CC(=O)NCC(COC(=O)C(C)(C)C)Cc2ccc(C(C)(C)C)cc2)c(I)cc1O (configuration not stated) please.
Result: t

Request: Same question for COc1cc(CC(=O)NCC(COC(=O)C(C)(C)C)Cc2ccc(C(C)(C)C)cc2)c(Br)cc1O (configuration not stated) please.
Result: t

Request: Same question for `COc1cc(CC(=O)NCc2ccc(C(C)(C)C)cc2)c(Cl)cc1O` please.
Result: f

Request: Same question for CC(C)(C)C(=O)OCC(CNC(=O)Cc1cc(Br)c(N)c(Br)c1)Cc1ccc(C(C)(C)C)cc1 (configuration not stated) please.
Result: t

Request: Same question for COc1cc(CC(=O)NCC(COC(=O)C(C)(C)C)Cc2ccc(C(C)(C)C)cc2)cc(Br)c1O (configuration not stated) please.
Result: t

Request: Same question for CC(C)(C)C(=O)OCC(CNC(=O)Cc1cc(Cl)c(O)c(Cl)c1)Cc1ccc(C(C)(C)C)cc1 (configuration not stated) please.
Result: t

Request: Same question for COc1cc(CC(=O)NCC(COC(=O)C(C)(C)C)Cc2ccc(C(C)(C)C)cc2)cc(Br)c1N (configuration not stated) please.
Result: t

Request: Same question for `COc1cc(CC(=O)NCc2ccc(C(C)(C)C)cc2)cc(I)c1O` please.
Result: t

Request: Same question for `COc1cc(CC(=O)NCc2ccc(C(C)(C)C)cc2)cc(Br)c1OC(C)=O` please.
Result: t

Request: Same question for CC(C)(C)C(=O)OCC(CNC(=O)Cc1cc(Cl)c(N)c(Cl)c1)Cc1ccc(C(C)(C)C)cc1 (configuration not stated) please.
Result: t
